Would you kindly list IC50 for each of these compounds?
- tested on: hROMK (hKir1.1) (Homo sapiens (Human))
- Sequence (P48048 whole entry): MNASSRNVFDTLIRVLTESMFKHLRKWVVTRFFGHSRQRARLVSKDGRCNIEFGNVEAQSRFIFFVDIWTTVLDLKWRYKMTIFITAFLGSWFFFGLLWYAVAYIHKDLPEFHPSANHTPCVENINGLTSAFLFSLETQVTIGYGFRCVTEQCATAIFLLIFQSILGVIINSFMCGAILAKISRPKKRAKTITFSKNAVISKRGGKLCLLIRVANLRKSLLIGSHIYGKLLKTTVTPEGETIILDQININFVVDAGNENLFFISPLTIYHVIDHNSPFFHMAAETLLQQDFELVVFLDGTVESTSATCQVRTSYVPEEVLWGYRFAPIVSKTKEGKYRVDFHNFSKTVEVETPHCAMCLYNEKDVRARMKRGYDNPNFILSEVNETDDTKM
- experiment description: Thallium Flux Assay (ROMK channel functional thallium flux, FLIPR-Tetra)
- Format: cell-based
- cond: HEK293 cells stably expressing hROMK (hKir1.1); read-out: Thallium Flux IC50
- Description: Cell Culture Conditions—HEK293 cells stably expressing hROMK (hKir1.1) were grown at 37° C. in a 10% CO2 humidified incubator in complete growth media: Dulbecco's Modified Eagle Medium supplemented with non-essential amino acids, Penicillin/Streptomycin/Glutamine, G418 and FBS. […] Data Calculation—The fluorescence intensity of wells containing 3 μM of a standard control ROMK inhibitor of the present invention is used to define the ROMK-sensitive component of thallium flux. […]
Give bare numbers, in µM.

Hey, can you go through the list below and give me IC50 for every item?
1. COc1ccc([C@H]2CN3CCN(C(=O)C4CCc5cc(-n6cnnn6)ccc54)C[C@H]3CO2)c(C)c1C#N (stereo partly drawn)
2. Cc1c([C@@H]2CN3CCN(C(=O)Cc4cc(-n5cnnn5)ccc4F)C[C@@H]3CO2)ccc(F)c1C#N

Reply:
1. 0.2
2. 0.36

# compound Cc1c([C@@H]2CN3CCN(C(=O)C4CCc5cc(-n6cnnn6)ccc54)C[C@H]3CO2)ccc(F)c1C#N (mixture of isomers) [Example 2B] ; its IC50 = 0.29
